Tested on: Rattus norvegicus
Details: repeat dose other; oral
Decide using NOAEL alone. Strictly below 0.2 mg/kg-day: True. Equal to or above 0.2 mg/kg-day: False.

For orientation, consider the following solved cases.
[Cl][Cd][Cl] [Cadmium chloride] :: False
ClC(Cl)(Cl)Cl [Carbon tetrachloride] :: False
Clc1cc2oc3cc(Cl)c(Cl)c(Cl)c3c2cc1Cl [1,2,3,7,8-Pentachlorodibenzofuran] :: True
CO [Methanol] :: False

Now examine the next entry.
Confirm or reject: NOAEL of [Na+].[O]=[V](=[O])[O-] [Sodium metavanadate] lies strictly below 0.2 mg/kg-day
False

* * *

Please respond with reported LD50 for every item in the list.
System: Rattus norvegicus
Details: acute; oral; gavage

Solved entries:
CCCCCCCCCCCCCCCCc1c(Oc2ccccc2S(=O)(=O)O)cccc1S(=O)(=O)O.[Na+].[Na+] [Disodium hexadecyl(sulfophenoxy)benzenesulfonate] :: > 3980 mg/kg
O=C([O-])c1ccc2ccccc2c1.O=C([O-])c1ccc2ccccc2c1.[Zn+2] [Zinc naphthenate] :: > 6000 mg/kg
Cc1cc(S(=O)(=O)[O-])c(N=Nc2c([O-])c(C(=O)O)cc3ccccc23)cc1Cl.[Ca+2] [C.I. Pigment Red 48, calcium salt (1:1)] :: ≥ 5000 mg/kg

We now examine a further compound.
Answer with the recorded LD50 of C=C(C#N)C(=O)OCC [Ethyl cyanoacrylate] only.
> 5000 mg/kg
